- TARGET ENTITY: Ubiquitin carboxyl-terminal hydrolase 17-like protein 5 (Homo sapiens) (UniProt A8MUK1)
- Sequence (A8MUK1 whole entry, looked up): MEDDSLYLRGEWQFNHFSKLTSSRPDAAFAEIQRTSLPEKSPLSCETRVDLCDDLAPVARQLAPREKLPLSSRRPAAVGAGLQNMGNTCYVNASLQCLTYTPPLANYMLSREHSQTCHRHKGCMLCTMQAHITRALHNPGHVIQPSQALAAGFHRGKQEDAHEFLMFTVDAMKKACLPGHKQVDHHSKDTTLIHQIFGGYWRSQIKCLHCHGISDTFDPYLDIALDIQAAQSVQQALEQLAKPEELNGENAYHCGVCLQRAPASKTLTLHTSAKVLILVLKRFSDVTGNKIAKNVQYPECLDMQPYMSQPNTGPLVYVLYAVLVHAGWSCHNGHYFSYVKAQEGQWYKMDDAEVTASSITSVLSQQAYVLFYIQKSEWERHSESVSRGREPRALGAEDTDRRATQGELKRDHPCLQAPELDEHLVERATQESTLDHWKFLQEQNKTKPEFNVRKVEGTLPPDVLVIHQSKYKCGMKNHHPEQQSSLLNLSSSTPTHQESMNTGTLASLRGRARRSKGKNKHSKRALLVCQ
- PROTOCOL TEXT: inhibitors of human USP17 deubiquitinase (AID 1645855)
- RECORDED CONDITIONS: purified USP17, Ub-rhodamine cleavage fluorescence, 3 h; at 50 µM; hits give high values
Out of some 47,000 compounds screened, about 3,100 (6.6%) were called active. The full list was thinned out, with actives kept by preference.
Exercise: state measured inhibition for each of the compounds provided.
Numbers only, in %.

Exercise: Recorded inhibition for `O=C1N(c2cccc(F)c2)c2ncccc2S(=O)(=O)N1Cc1ccccc1` , please?
Key: 2.92

Exercise: And for `COc1cccc(-n2nnc(-c3nnc(-c4ccccc4)o3)c2C)c1` ?
Key: 54.7

Exercise: Now the same for `O=C(Cn1c(=O)n(Cc2ccc3c(c2)OCO3)c(=O)c2ccccc21)NCc1ccco1`
Key: 23

Now examine the next entry.
Exercise: Fill in the blank: the reported inhibition of `O=C(Cc1ccccc1Cl)Nc1ccc(N2CCOCC2)cc1` is ____.
Key: 31.6

---

- TARGET ENTITY: Ubiquitin carboxyl-terminal hydrolase 17-like protein 5 (Homo sapiens) (UniProt A8MUK1)
- PROTOCOL TEXT: inhibitors of human USP17 deubiquitinase (AID 1645855)
- RECORDED CONDITIONS: purified USP17, Ub-rhodamine cleavage fluorescence, 3 h; at 50 µM; hits give high values
About 3,100 (6.6%) of roughly 47,000 compounds were called active. The entries come from a sample that favours actives as a whole.
Record Yes whenever inhibition is at -10% or higher; record No when lower.

See these solved cases before continuing.
Exercise: For this compound, is measured inhibition -10% or higher? `O=S1(=O)c2ccccc2O[C@H]2CCN(c3ncccn3)CC[C@@H]2N1Cc1cccnc1`
Key: No

Exercise: Also `O=C(c1cccnc1)N1CCC(c2cccc(Cc3ccccc3Cl)n2)CC1` , if possible.
Key: No

Exercise: Do the same for CCN1CCN(c2nc(F)c3c(c2F)S(=O)(=O)CCN3CC2CCCO2)CC1 (stereo unspecified) please
Key: Yes

Exercise: Try `CC1CCN(c2nc(F)c3c(c2F)S(=O)(=O)CCN3Cc2cccnc2)CC1` next.
Key: Yes

Exercise: Now this one: `CCC(=O)c1ccc(OCC(=O)Nc2ccc3nc(C)sc3c2)cc1`
Key: Yes

Continue with the next compound.
Exercise: Could you verify whether the entry `Cc1cc2nc(Cc3ccccc3)cc(=O)n2[nH]1` shows inhibition of no less than -10%?
Key: No

---

- TARGET ENTITY: Ubiquitin carboxyl-terminal hydrolase 17-like protein 5 (Homo sapiens)
- PROTOCOL TEXT: inhibitors of human USP17 deubiquitinase (AID 1645855)
- RECORDED CONDITIONS: purified USP17, Ub-rhodamine cleavage fluorescence, 3 h; at 50 µM
The campaign covered roughly 47,000 compounds. About 3,100 (6.6%) were called active. No stated cut-off is given here; in the data, active means inhibition above about 30%; inactive means the rest. The entries come from a sample that favours actives as a whole.
Outcome field: choose from True (active), False (inactive)

A selection of reference data follows.
Exercise: # fetch the recorded call for `COC(=O)COc1cccc2c(=O)n(CC(=O)N3CCc4ccccc43)ccc12` here
Key: True

Exercise: Cool, now `CCS(=O)(=O)c1cccc(C(=O)Nc2c(C(N)=O)oc3ccccc23)c1`
Key: True

Exercise: What about this molecule? `COc1ccc(F)c([C@@H]2NC(=O)CC[C@H]2NCc2cccc(O)c2)c1`
Key: False

Exercise: Also check C[C@@H]1O[C@@H](OC2[C@H](Oc3cc(O)c4c(c3)OC(c3ccc(O)cc3)CC4=O)O[C@H](CO)[C@@H](O)[C@@H]2O)[C@H](O)[C@H](O)[C@H]1O (stereo partly drawn)
Key: False

Exercise: Moving on to `O=C(c1ccc(OC2CCN(C(=O)C3CCC3)CC2)nc1)N1CCOCC1`
Key: False

Switching to the query record.
Exercise: Entry `COc1ccc(C(=O)Nc2cc(=O)[nH]c3nc(Cc4ccccc4)nn23)cc1` : call = ?
Key: False

---

- TARGET ENTITY: Ubiquitin carboxyl-terminal hydrolase 17-like protein 5 (Homo sapiens)
- PROTOCOL TEXT: inhibitors of human USP17 deubiquitinase (AID 1645855)
- RECORDED CONDITIONS: purified USP17, Ub-rhodamine cleavage fluorescence, 3 h; at 50 µM; hits give high values
Screen size: about 47,000 compounds; about 3,100 (6.6%) were called active. Many of the other results were omitted from the sample, so actives are more common in it than they were.
RECORDED METRIC: inhibition (%)
Give bare numbers, in %.

Exercise: Tell me the measured inhibition of `CSc1nccc(-c2ccc(F)cc2)c1C#N` , please.
Key: 82.5

Exercise: Next record, please: `Cc1ccc(CNC(=O)CC(c2ccccc2)c2ccccc2)cc1`
Key: 24.3

Exercise: What about `Cn1ccnc1CN1C(=O)CO[C@H]2CN(Cc3ccc4c(c3)OCO4)C[C@H]21` ?
Key: 4.69

Exercise: Next record, please: `Clc1ccccc1SCc1nc2ccccc2[nH]1`
Key: 6.98

Exercise: Next record, please: `CN1CCN(c2nc3c(s2)CN(C(=O)c2ccccc2)CC3)CC1`
Key: -15.2

Give inhibition for all compounds that follow.
1. CN(c1ccccc1)c1nc(=O)n(CC(=O)Nc2ccc3c(c2)OCCO3)c2ccccc12
2. CC(=O)NC(Cc1ccccc1C)C(=O)NC1CCN(C(=O)Nc2cccc(C)c2)CC1 (configuration not stated)
3. CC(Oc1ccc2c3c(c(=O)oc2c1)CCC3)C(=O)NCC(=O)N1CC[C@@]2(O)CCCC[C@H]2C1 (some centres not stated)
4. CSCC[C@H](NC(=O)N1CCn2c1nc1ccccc12)C(=O)NCc1ccc2c(c1)OCO2
5. Cc1c(CN2CCOC(c3cncc(-c4ccccc4F)n3)C2)cnn1C (configuration not stated)
6. O=C(Cn1cnc2ccccc21)N1CCCc2ccccc21

Key:
1. 54
2. 1.56
3. 10.3
4. 14.2
5. -0.212
6. -1.89

List the reported inhibition of each compound below.
1. Cc1nn(-c2ccc(F)cc2F)c2c1C(C(=O)c1ccc3c(c1)OCO3)CC(=O)N2 (configuration not stated)
2. Cc1nn(-c2cccc(F)c2)c2c1C(C(=O)c1cc3ccccc3o1)CC(=O)N2 (configuration not stated)
3. O=S(Cc1cc(Sc2ccccc2)nc(-c2ccccn2)n1)c1ccc(Cl)cc1 (configuration not stated)

Key:
9.19
2.88
-9.57

Provide each entry's inhibition from the list below.
1. CN1CC(c2ncn[nH]2)c2cc(C(=O)NCc3ccccc3)ccc21 (configuration not stated)
2. COc1ccc(C)cc1NC(=O)Cn1c(=O)nc(N(C)c2ccccc2)c2ccccc21
3. Cc1c(C(=O)NC2CCCCC2)oc2ccccc12

Key:
-5
14.1
0.0641
